Attribution: ChEMBL document CHEMBL1122908

Assayed Target: UniProt:P97266
Sequence (P97266 whole entry): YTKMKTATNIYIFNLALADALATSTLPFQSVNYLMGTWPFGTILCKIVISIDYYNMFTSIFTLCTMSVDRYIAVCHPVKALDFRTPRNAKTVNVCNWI
Assay: Inhibitory binding constant in guinea pig brain homogenate was reported at mu site at a temperature 25 degree Centigrade labeled with [3H](D-Ala2-MePhe4,Gly-ol5)enkephalin(1 nM)
pKi: −log10 of the molar value.
Property Measured: pKi

>>> reported("O=C1c2ccc(O)c3c2C24CCN(CC5CC5)C1[C@]2(O)CCC(=O)[C@@H]4O3 (stereo partly specified) [KETONALTREXONE]")
7.51

###

Species on record: Mus musculus
Assay: Agonist activity in the mouse vas deferens.
Format: functional
Property Measured: IC50 (nM)

>>> reported("CN1CC[C@]23c4c5ccc(O)c4O[C@H]2C(=O)CC[C@@]3(O)[C@H]1C5")
77
